Recorded values, source paper PMC6895048.

# ASSAYED TARGET: IDO1 (Homo sapiens)
# TEST NAME: Kynurenine assay by HPLC analysis, IDO1
# Assay type: biochemical
# Set-up: made in house; host or cells: Escherichia coli M15 (pQE30 vector with pREP4 plasmid)
# TEST CONDITIONS: HPLC; 800 nM
Measured inhibition at 0.8 µM, listed per entry.

Some compounds with recorded inhibition at 0.8 µM:
Prompt line: Under IDO1 (Homo sapiens): inhibition at 0.8 µM value of "NS(=O)(=O)NCCNC(=O)c1n[nH]nc1-c1ccc(Cl)c(Cl)c1" ?
Response line: 65%

Prompt line: Under IDO1 (Homo sapiens): inhibition at 0.8 µM value of "NS(=O)(=O)NCCNC(=O)c1n[nH]nc1-c1ccc(F)c(F)c1" ?
Response line: 69%

Prompt line: Under IDO1 (Homo sapiens): inhibition at 0.8 µM value of "NC(=O)c1n[nH]nc1-c1ccccc1" ?
Response line: 36%

Note: attention shifts to another entry.
Prompt line: Under IDO1 (Homo sapiens): inhibition at 0.8 µM value of "CCOC(=O)c1n[nH]nc1-c1ccccc1" ?
Response line: 35%

====

# ASSAYED TARGET: IDO1 (Homo sapiens, UniProt P14902)
# Sequence (P14902 whole entry): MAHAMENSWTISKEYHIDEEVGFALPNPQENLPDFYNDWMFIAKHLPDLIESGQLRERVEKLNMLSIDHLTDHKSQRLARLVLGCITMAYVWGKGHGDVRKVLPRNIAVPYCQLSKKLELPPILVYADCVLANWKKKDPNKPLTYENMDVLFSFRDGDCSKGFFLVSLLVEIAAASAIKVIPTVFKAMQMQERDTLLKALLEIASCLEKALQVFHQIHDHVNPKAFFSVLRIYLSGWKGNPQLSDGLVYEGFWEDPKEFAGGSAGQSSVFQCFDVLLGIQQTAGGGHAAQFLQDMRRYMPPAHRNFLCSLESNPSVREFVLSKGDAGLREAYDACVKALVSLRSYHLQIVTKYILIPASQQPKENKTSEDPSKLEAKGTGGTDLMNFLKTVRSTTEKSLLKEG
# TEST NAME: Circular dichroism analysis of IDO1 enzyme
# Set-up: made in house; host or cells: Escherichia coli M15 (pQE30 vector with pREP4 plasmid)
# TEST CONDITIONS: compound 0.25 µM
READOUT LABEL: % of Secondary structural elements, Helix (%)
Numeric only. Scale: %

Some compounds with recorded % of Secondary structural elements, Helix:
Prompt line: For O=C(N/C(Cc1ccc(O)cc1)=N\O)c1n[nH]nc1-c1ccc(F)c(F)c1 [Compound 4i] , what is its reported % of Secondary structural elements, Helix?
Response line: 27.8

Prompt line: For NS(=O)(=O)NCCNC(=O)c1n[nH]nc1-c1ccc(F)c(F)c1 [Compound 4k] , what is its reported % of Secondary structural elements, Helix?
Response line: 26.8

Prompt line: For CCOC(=O)c1n[nH]nc1-c1ccc(F)c(F)c1 [Compound 2i] , what is its reported % of Secondary structural elements, Helix?
Response line: 28

Note: attention shifts to another entry.
Prompt line: For NC(=O)c1n[nH]nc1-c1ccc(F)c(F)c1 [Compound 3i] , what is its reported % of Secondary structural elements, Helix?
Response line: 30.1

====

# ASSAYED TARGET: TDO enzyme (Homo sapiens)
# Construct: 6xHis (N); made in house; host or cells: Escherichia coli BL21 (DE3) (pET 28a vector)
# Sequence (P48775 whole entry): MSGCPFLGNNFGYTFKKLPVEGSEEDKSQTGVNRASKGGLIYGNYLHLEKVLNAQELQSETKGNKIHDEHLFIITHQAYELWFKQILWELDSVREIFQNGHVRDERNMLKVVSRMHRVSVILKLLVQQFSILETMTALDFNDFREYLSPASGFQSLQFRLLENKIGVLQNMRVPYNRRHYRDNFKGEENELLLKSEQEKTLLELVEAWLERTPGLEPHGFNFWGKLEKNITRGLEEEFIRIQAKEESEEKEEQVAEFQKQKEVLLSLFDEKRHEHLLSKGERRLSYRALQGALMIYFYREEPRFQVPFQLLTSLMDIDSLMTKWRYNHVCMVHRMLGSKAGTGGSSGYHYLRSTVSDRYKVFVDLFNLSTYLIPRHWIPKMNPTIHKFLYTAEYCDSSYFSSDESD
# TEST NAME: HPLC based TDO inhibition assay
# Assay type: biochemical
# TEST CONDITIONS: 100 µM
READOUT LABEL: % Of inhibition for TDO enzyme (%)
Numeric only. Scale: %

Some compounds with recorded % Of inhibition for TDO enzyme:
Prompt line: For "CCOC(=O)c1n[nH]nc1-c1ccc(Cl)c(Cl)c1" , what is its reported % Of inhibition for TDO enzyme?
Response line: 43

Prompt line: For "O=C(N/C(Cc1ccc(O)cc1)=N\O)c1n[nH]nc1-c1ccc(F)c(F)c1" , what is its reported % Of inhibition for TDO enzyme?
Response line: 73

Prompt line: For "NC(=O)c1n[nH]nc1-c1ccc(F)c(F)c1" , what is its reported % Of inhibition for TDO enzyme?
Response line: 52

Prompt line: For "NC(=O)c1n[nH]nc1-c1ccc(Cl)c(Cl)c1" , what is its reported % Of inhibition for TDO enzyme?
Response line: 51

Prompt line: For "CCOC(=O)c1n[nH]nc1-c1ccc(F)c(F)c1" , what is its reported % Of inhibition for TDO enzyme?
Response line: 83

***
Prompt line: For "O=C(O)c1n[nH]nc1-c1ccc(F)c(F)c1" , what is its reported % Of inhibition for TDO enzyme?
Response line: 54

====

# ASSAYED TARGET: IDO1 (Homo sapiens, UniProt P14902)
# TEST NAME: Circular dichroism analysis of IDO1 enzyme
# Parameters: made in house; host or cells: Escherichia coli M15 (pQE30 vector with pREP4 plasmid)
# TEST CONDITIONS: compound 2 µM
Measured % of Secondary structural elements, Random, listed per entry.
Numeric only. Scale: %

Some compounds with recorded % of Secondary structural elements, Random:
Prompt line: For CCOC(=O)c1n[nH]nc1-c1ccc(F)c(F)c1 [Compound 2i] , what is its reported % of Secondary structural elements, Random?
Response line: 33.8

Prompt line: For NC(=O)c1n[nH]nc1-c1ccc(F)c(F)c1 [Compound 3i] , what is its reported % of Secondary structural elements, Random?
Response line: 40.8

***
Prompt line: For NS(=O)(=O)NCCNC(=O)c1n[nH]nc1-c1ccc(F)c(F)c1 [Compound 4k] , what is its reported % of Secondary structural elements, Random?
Response line: 46.0

Prompt line: For O=C(N/C(Cc1ccc(O)cc1)=N\O)c1n[nH]nc1-c1ccc(F)c(F)c1 [Compound 4i] , what is its reported % of Secondary structural elements, Random?
Response line: 42.6

====

Measured inhibition at 100 µM, listed per entry.
# ASSAYED TARGET: TDO enzyme (Homo sapiens)
# Construct: 6xHis (N); made in house; host or cells: Escherichia coli BL21 (DE3) (pET 28a vector)
# TEST NAME: HPLC based TDO inhibition assay
# Assay type: biochemical
# TEST CONDITIONS: 100 µM
# Method: HPLC based IDO1, and TDO inhibition assays were performed according to the earlier reported procedure[19],[27]–[30]. […] The area under the curve at 365 nm chromatogram corresponding to the kynurenine formation was recorded, and % of inhibition was calculated using standard curve prepared with pure kynurenine (from Sigma) under similar experimental conditions.
Numeric only. Scale: %

Some molecules with recorded inhibition at 100 µM:
Prompt line: Under TDO enzyme (Homo sapiens): inhibition at 100 µM value of "NS(=O)(=O)NCCNC(=O)c1n[nH]nc1-c1ccc(Cl)c(Cl)c1" ?
Response line: 55

Prompt line: Under TDO enzyme (Homo sapiens): inhibition at 100 µM value of "CCOC(=O)c1n[nH]nc1-c1ccccc1" ?
Response line: 73

Prompt line: Under TDO enzyme (Homo sapiens): inhibition at 100 µM value of "NS(=O)(=O)NCCNC(=O)c1n[nH]nc1-c1ccc(F)c(F)c1" ?
Response line: 68

***
Prompt line: Under TDO enzyme (Homo sapiens): inhibition at 100 µM value of "NC(=O)c1n[nH]nc1-c1ccccc1" ?
Response line: 30

====

Measured inhibition at 100 µM, listed per entry.
# ASSAYED TARGET: IDO1 (Homo sapiens)
# TEST NAME: Kynurenine assay by HPLC analysis, IDO1
# Format: biochemical
# Design: made in house; host or cells: Escherichia coli M15 (pQE30 vector with pREP4 plasmid)
# TEST CONDITIONS: HPLC; 100 µM
Numeric only. Scale: %

Some compounds with recorded inhibition at 100 µM:
Prompt line: Under IDO1 (Homo sapiens): inhibition at 100 µM value of "NC(=O)c1n[nH]nc1-c1ccccc1" ?
Response line: 80

Prompt line: Under IDO1 (Homo sapiens): inhibition at 100 µM value of "NS(=O)(=O)NCCNC(=O)c1n[nH]nc1-c1ccc(Cl)c(Cl)c1" ?
Response line: 94

Prompt line: Under IDO1 (Homo sapiens): inhibition at 100 µM value of "NS(=O)(=O)NCCNC(=O)c1n[nH]nc1-c1ccc(F)c(F)c1" ?
Response line: 84

Note: attention shifts to another entry.
Prompt line: Under IDO1 (Homo sapiens): inhibition at 100 µM value of "CCOC(=O)c1n[nH]nc1-c1ccccc1" ?
Response line: 81

====

# ASSAYED TARGET: IDO1 (Homo sapiens, UniProt P14902)
# TEST NAME: Kynurenine assay by HPLC analysis, IDO1
# Format: biochemical
# Parameters: made in house; host or cells: Escherichia coli M15 (pQE30 vector with pREP4 plasmid)
# TEST CONDITIONS: HPLC; 160 nM
Measured inhibition at 0.16 µM, listed per entry.
Numeric only. Scale: %

Some compounds with recorded inhibition at 0.16 µM:
Prompt line: For "NS(=O)(=O)NCCNC(=O)c1n[nH]nc1-c1ccc(Cl)c(Cl)c1" , what is its reported inhibition at 0.16 µM?
Response line: 57

Prompt line: For "NC(=O)c1n[nH]nc1-c1ccccc1" , what is its reported inhibition at 0.16 µM?
Response line: 31

Prompt line: For "CCOC(=O)c1n[nH]nc1-c1ccccc1" , what is its reported inhibition at 0.16 µM?
Response line: 31

Note: attention shifts to another entry.
Prompt line: For "NS(=O)(=O)NCCNC(=O)c1n[nH]nc1-c1ccc(F)c(F)c1" , what is its reported inhibition at 0.16 µM?
Response line: 45

====

# ASSAYED TARGET: purified human TDO enzyme (Homo sapiens, UniProt P48775)
# Construct: 6xHis (N); made in house; host or cells: Escherichia coli BL21 (DE3) (pET 28a vector)
# Sequence (P48775 whole entry): as above
# TEST NAME: TDO inhibition assay by the spectrometric method
# Type: biochemical
# TEST CONDITIONS: spectrophotometric; 160 nM
Where % of Enzyme inhibition (TDO) equals or exceeds 10%, the correct label is 1; where it does not, the label is 0.

See these solved cases before continuing.
Prompt line: API: above_or_equal(metric=% of Enzyme inhibition (TDO), cutoff=10%) for item NC(=O)c1n[nH]nc1-c1ccc(Cl)c(Cl)c1 [Compound 3j]
Response line: 0

Prompt line: API: above_or_equal(metric=% of Enzyme inhibition (TDO), cutoff=10%) for item O=C(N/C(Cc1ccc(O)cc1)=N\O)c1n[nH]nc1-c1ccc(F)c(F)c1 [Compound 4i]
Response line: 0

Prompt line: API: above_or_equal(metric=% of Enzyme inhibition (TDO), cutoff=10%) for item CCOC(=O)c1n[nH]nc1-c1ccc(Cl)cc1 [Compound 2g]
Response line: 1

***
Prompt line: API: above_or_equal(metric=% of Enzyme inhibition (TDO), cutoff=10%) for item O=C(O)c1n[nH]nc1-c1ccc(F)c(F)c1 [Compound 4a]
Response line: 0

Prompt line: API: above_or_equal(metric=% of Enzyme inhibition (TDO), cutoff=10%) for item NC(=O)c1n[nH]nc1-c1ccc(F)c(F)c1 [Compound 3i]
Response line: 1
